# measured_on: V1 receptor (Rattus norvegicus)
# method: biochemical
# Type: binding
recorded_metric: pIC50
// pIC50 here means minus log10 of the molar concentration (mol/L)

// below: answered molecules
smiles_record: CN(C)C(=O)C1CCN(C(=O)CCCCCOc2ccc(C(=O)N3CCC(N4C(=O)CCc5ccccc54)CC3)cc2)CC1
recorded_metric: pIC50
result_value: 6.96
//
smiles_record: COc1ccc(C(=O)N2CCC(N3C(=O)CCc4ccccc43)CC2)c(O)c1
recorded_metric: pIC50
result_value: 6.70
//
smiles_record: NC(=O)OCCCCCOc1ccc(C(=O)N2CCC(N3C(=O)CCc4ccccc43)CC2)cc1
recorded_metric: pIC50
result_value: 6.74

// below: pIC50 requested for another molecule
pIC50 reported for this molecule O=C(NCCCC[C@H](NC(=O)OCc1ccccc1)C(=O)NCCCOc1ccc(C(=O)N2CCC(N3C(=O)CCc4ccccc43)CC2)cc1)OCc1ccccc1 : 6.19

###

# measured_on: V1 receptor (Rattus norvegicus, UniProt P30560)
# Sequence (P30560 whole entry): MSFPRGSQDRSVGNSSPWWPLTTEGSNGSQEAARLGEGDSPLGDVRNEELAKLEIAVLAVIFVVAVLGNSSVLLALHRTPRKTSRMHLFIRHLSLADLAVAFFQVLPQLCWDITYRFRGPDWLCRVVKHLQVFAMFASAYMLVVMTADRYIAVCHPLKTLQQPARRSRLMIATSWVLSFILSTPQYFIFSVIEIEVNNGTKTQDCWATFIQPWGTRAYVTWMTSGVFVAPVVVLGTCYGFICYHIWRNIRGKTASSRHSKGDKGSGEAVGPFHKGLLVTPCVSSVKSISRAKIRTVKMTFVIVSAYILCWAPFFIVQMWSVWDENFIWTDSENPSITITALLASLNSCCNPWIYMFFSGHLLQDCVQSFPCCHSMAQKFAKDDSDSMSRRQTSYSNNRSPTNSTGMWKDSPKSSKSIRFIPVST
# method: biochemical
# Format: binding
Label rule met when IC50 < 400 nM; otherwise rule not met.

compound: CN(C)C(=O)CCCOc1ccc(C(=O)N2CCC(N3C(=O)CCc4ccccc43)CC2)cc1
category: rule met
--
compound: COc1ccc(C(=O)N2CCC(N3C(=O)CCc4ccc(C)cc43)CC2)c(OC)c1
category: rule met
--
compound: CNC(=O)CCCOc1ccc(C(=O)N2CCC(N3C(=O)CCc4ccccc43)CC2)cc1
category: rule not met

# check: IC50 < 400 nM for CN1CCN(CCCOc2ccc(C(=O)N3CCC(N4C(=O)CCc5ccccc54)CC3)cc2)CC1
rule met

Is it true that IC50 reported for CCS(=O)(=O)CCCOc1ccc(C(=O)N2CCC(N3C(=O)CCc4ccccc43)CC2)cc1 is less than 400 nM?
rule not met

Dear reviewer, please state whether C=CCOc1cc(OC)ccc1C(=O)N1CCC(N2C(=O)CCc3ccccc32)CC1 has IC50 strictly beneath 400 nM.
rule met

Say whether its IC50 is strictly beneath 400 nM. Entry: NC(=O)[C@@H]1CCCN1CC(O)CCCCOc1ccc(C(=O)N2CCC(N3C(=O)CCc4ccccc43)CC2)cc1 (stereo partly drawn)
rule met

Below 400 nM on IC50? Entry O=C(c1ccc(OCCCCCN2CCN(c3ccccn3)CC2)cc1)N1CCC(N2C(=O)CCc3ccccc32)CC1
rule met

Strictly below 400 nM in IC50? NC(=O)OCCCCCCOc1ccc(C(=O)N2CCC(N3C(=O)CCc4ccccc43)CC2)cc1
rule met

Would you kindly verify if IC50 of CCOc1ccc(C(=O)N2CCC(N3C(=O)CCc4c(O)cccc43)CC2)c(OC)c1 is strictly less than 400 nM?
rule met

Consider CCN(CC)CCCCCCOc1ccc(C(=O)N2CCC(N3C(=O)CCc4ccccc43)CC2)cc1 . Does its IC50 lie strictly below 400 nM?
rule met

###

Some compounds, each annotated with its measured IC50.
# measured_on: UniProt:P30560
# method: biochemical
# Format: binding
Please state the figure in nM; there is no need to write the unit.

The recorded IC50 with UniProt:P30560 for CC(C)[C@@H](N)C(=O)NCCCOc1ccc(C(=O)N2CCC(N3C(=O)CCc4ccccc43)CC2)cc1 was 99

UniProt:P30560 data for O=CNCCCOc1ccc(C(=O)N2CCC(N3C(=O)CCc4ccc(F)cc43)CC2)cc1 ; its IC50: 170

Let me check: CC(=O)OCCCCOc1ccc(C(=O)N2CCC(N3C(=O)CCc4ccccc43)CC2)cc1 , system UniProt:P30560, measured IC50 is 360

// returns IC50 for O=C(c1ccc(OCCCCCCC(O)CN2CCCC2)cc1)N1CCC(N2C(=O)CCc3ccccc32)CC1 (stereo not shown) with UniProt:P30560; value = 30
